Data origin, for the record: paper PMC5540273

# Test system: NEK10
# condition context: concentration: 1 μM, replicates: in singlicate; n = 1;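 further: KINOMEscan kinase panel screen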
metric name: %Inh

COc1ccc(NC(=O)c2ccc(-c3cc(-c4nnc(C)o4)ccc3C)cc2)cc1 [GW595885]: 16%
Cl.Cl.c1ccc(-c2cc3ccncc3cc2OC2CCNCC2)cc1 [GSK1122999]: 24%
C[C@H]1CC[C@@H](C(=O)Nc2ccccc2)CN1c1cc(-c2ccc3c(N)n[nH]c3c2)nc(N)n1 [GSK2283293]: 0%
CNc1nccc(-c2c(-c3ccc(F)cc3)ncn2C2CCN(C)CC2)n1 [SB-222903]: 0%
Clc1ccc(-c2cc(-c3c[nH]nc3-c3ccccn3)ccn2)cc1 [GW681251]: 12%
O=C(Nc1ccccc1F)NC1CCN(c2ccnc(Nc3ccc(F)cc3)n2)C1 (centres unmarked) [GSK1379722]: 22%
Nc1nc(-c2ccc3c(N)n[nH]c3c2)cc(N2CCC[C@@H](C(=O)Nc3ccccc3)C2)n1.O=C(O)C(F)(F)F.O=C(O)C(F)(F)F [GSK2288359]: 0%
OCCOCCn1ccc2ncnc(Nc3ccc(Oc4cccc(Cl)c4)c(Cl)c3)c21: 0%
Cc1ccc(NC(=O)c2cccc(C#N)c2)cc1-c1ccc(C(=O)Nc2ccncc2)cc1 [GSK1398463]: 1%
CCn1c(-c2ccncc2)nc2cnccc21 [SB-735216]: 0%
CNc1nccc(-c2c(-c3ccc(F)cc3)ncn2CCCN2CCOCC2)n1 [SB-222516]: 0%
COc1ccc(NC(=O)Nc2ccc(C)c(-c3ccc(C(=O)Nc4ccncc4)cc3)c2)cc1 [GSK1398475]: 0%
CCCc1ccc(S(=O)(=O)NC2CCN(c3ccnc(Nc4ccc(OC)cc4)n3)C2)cc1 (centres unmarked) [GSK1379737]: 21%
CSc1nn2c(=O)cc(N3CCOCC3)nc2n1Cc1cccc(Cl)c1Cl [GSK2347225]: 29%
NC(=O)c1sc(-n2cnc3ccccc32)cc1OCc1ccccc1F [GSK1024306]: 22%
Fc1cccc(COc2ccc(Nc3ncnc4nn5ccccc5c34)cc2Cl)c1 [GW689066]: 0%
CN1CCC(n2cnc(-c3ccc(F)cc3)c2-c2ccnc(NC3CCNCC3)n2)CC1 [SB-229482]: 13%
O=C(c1ccc(-c2cc(-c3c[nH]nc3-c3ccccn3)ccn2)cc1)N1CCCC1 [GW792479]: 18%
Cc1ccc(O)cc1Nc1cc(C(F)(F)F)nc2ccc(-c3ccncc3)cc12 [GW630823]: 0%
Nc1nc(-c2cccnc2)c(-c2ccnc3ccccc23)s1 [GW684083]: 77%
FC(F)(F)c1ccc(-c2nn3ncccc3c2-c2ccnc(Nc3cccc(C(F)(F)F)c3)n2)cc1 [GW828205]: 0%
Cn1ccc2ncnc(Nc3ccc(Oc4cccc(Cl)c4)c(Cl)c3)c21: 2%
CS(=O)(=O)CCNCc1nc(-c2ccc3ncnc(Nc4ccc(OCc5cccc(F)c5)c(Cl)c4)c3c2)cs1.Cl [GW583340]: 0%
COc1ccc(-c2nc3n(c2-c2ccncc2)CCC3)cc1 [SKF-104493]: 0%
Cl.c1ccc(Cn2ccc3cc(Nc4ncnc5ccccc45)ccc32)cc1 [GW275568]: 29%
Cl.O=S(=O)(c1cccc(F)c1)c1ccc(Nc2ncnc3cc(Br)sc23)cc1Cl [GSK306886]: 0%

----------
# System: TSSK1B
# condition context: concentration: 1 μM, replicates: in singlicate; n = 1
# binarize %Inh: threshold 10% inclusive, high side satisfied, low side not satisfied

O=C(Nc1ccccc1)Nc1ccc(Oc2ccc3nccn3n2)cc1: not satisfied
COC(=O)c1c(-c2ccccc2)c2cc(Cl)ccc2c(=O)n1Cc1ccc(S(C)(=O)=O)cc1: not satisfied
COc1ccc(NC(=O)c2ccc(-c3cc(-c4nnc(C)o4)ccc3C)cc2)cc1: satisfied
CCC(CC)(CC)n1cnc2c(N)ncnc21: not satisfied
CNc1nccc(-c2c(-c3ccc(F)cc3)ncn2C2CCN(C)CC2)n1: not satisfied
CN1c2ccc(-c3ccc(C(=O)NCCO)cc3)cc2-c2[nH]ncc2S1(=O)=O: not satisfied
Cl.Cn1ccc(-c2cccc(Nc3ccnc4cc(-c5nccs5)ccc34)c2)n1: not satisfied
FC(F)(F)c1ccc(-c2cc(-c3c[nH]nc3-c3ccccn3)ccn2)cc1: satisfied
Cn1ccc2ncnc(Oc3ccc(NC(=O)Nc4cccnc4)c(Cl)c3)c21: not satisfied
N#Cc1ccc(Oc2ccc(Nc3ncnc4cc[nH]c34)cc2Cl)cc1: not satisfied
CSc1ccc(NC2=C(c3ccccc3Cl)C(=O)NC2=O)cc1: satisfied
CC(C)(C)c1ccc(-n2cnc3c(N)ncnc32)cc1: satisfied
Cn1ccc2ncnc(Nc3ccc(Oc4cccc(Cl)c4)c(Cl)c3)c21: not satisfied
COc1ccc(-c2nc3n(c2-c2ccncc2)CCC3)cc1: not satisfied
Clc1cc(Nc2ncnc3cc[nH]c23)ccc1OCc1ccccn1: satisfied
CNc1nccc(-c2c(-c3ccc(F)cc3)ncn2CCCN2CCOCC2)n1: satisfied
CN1CCC(n2cnc(-c3ccc(F)cc3)c2-c2ccnc(NC3CCNCC3)n2)CC1: not satisfied
